# Test system: iCell endothelial cells (human iPSC-derived ECs)
# Procedure details: High-content imaging cytotoxicity in iCell endothelial cells, 24 h
# Format: cell-based
# Conditions: Homo sapiens, Endothelial cell, iPSC-EC, 24 hr, 1.00 µM, 0.00 µM control = 100.00, read-out: endo.nma.24hr
Counter-ions that a name gives are not always drawn.
Reported endpoint: activity at 1 µM (%)

>>> value_reported("O=S(=O)(O)Oc1cccc(-c2ccc(Cl)cc2)c1 [3'-yl PCB 3 sulfate]")
102
>>> value_reported("Oc1ccc(-c2ccc(Cl)cc2)cc1")
97.4
>>> value_reported("COc1ccc(-c2ccc(Cl)cc2)cc1")
102
>>> value_reported("Clc1ccc(-c2ccccc2)cc1")
95.8
>>> value_reported("O=S(=O)(O)Oc1cc(Cl)ccc1-c1ccccc1 [2-yl PCB 3 sulfate]")
99.6
>>> value_reported("O=C1C=CC(=O)C(c2ccc(Cl)cc2)=C1")
103
>>> value_reported("Oc1ccccc1-c1ccc(Cl)cc1")
96.4

---

# Tested on: iPSC-CMs, iPSC-ECs and HUVECs phenotypes
# Procedure details: ToxPi 2.0 integration of POD values and physicochemical descriptors
# Design: species or system human
# Conditions: ToxPi-scaled (0-1) score; iPSC cardiomyocytes, 90 min
Where a name gives a salt, the structure may show the parent alone.
Measured cm.amp.cv.90min values are reported for all entries that follow.
Reported endpoint: cm.amp.cv.90min

>>> value_reported("Clc1cc(Cl)c(-c2cc(Cl)c(Cl)cc2Cl)cc1Cl [PCB 153, 2,2′,4,4′,5,5′-hexachlorobiphenyl]")
0.2203
>>> value_reported("O=S(=O)(O)Oc1ccc(-c2ccc(Cl)cc2)cc1 [4'-PCB 3 sulfate]")
0.2569
>>> value_reported("Oc1ccc(O)c(-c2ccc(Cl)cc2)c1 [2',5'-diOH-PCB 3, 4-Chloro-2′,5′-dihydroxybiphenyl]")
0.5898
>>> value_reported("O=S(=O)(O)Oc1cccc(-c2ccc(Cl)cc2)c1 [3'-PCB 3 sulfate]")
0
>>> value_reported("COc1ccc(-c2cccc(Cl)c2)cc1Cl [4-OMe-PCB 11, 4-methoxy-3,3′-dichlorobiphenyl]")
0.2486
>>> value_reported("Oc1ccccc1-c1ccc(Cl)cc1 [2'-OH-PCB 3]")
1
>>> value_reported("O=S(=O)(O)Oc1cc(-c2ccccc2)ccc1Cl [3-PCB 3 sulfate]")
0

---

# System: iCell endothelial cells (human iPSC-derived ECs)
# Procedure details: High-content imaging cytotoxicity in iCell endothelial cells, 24 h
# Type: cell-based
# Conditions: Homo sapiens, Endothelial cell, iPSC-EC, 24 hr, top concentration 100.00 µM, read-out: endo.nma.24hr POD
Where a name gives a salt, the structure may show the parent alone.
Measured minimal effective concentration values are reported for all entries that follow.
Reported endpoint: minimal effective concentration (µM)

>>> value_reported("Oc1cc(Cl)cc(-c2cccc(Cl)c2)c1")
14.2
>>> value_reported("O=C1C=CC(=O)C(c2ccc(Cl)cc2)=C1")
13
>>> value_reported("O=S(=O)(O)Oc1cc(-c2ccccc2)ccc1Cl [3-yl PCB 3 sulfate]")
100
>>> value_reported("Oc1ccccc1-c1ccc(Cl)cc1")
1.82

---

Measured viability at 1 µM values are reported for all entries that follow.
# Test system: HUVECs
# Procedure details: High-content imaging cytotoxicity in HUVECs, 24 h
# Format: cell-based, human
# Conditions: Homo sapiens, HUVEC, 24 h, HUVECs, 24 hr, 1.00 µM; 0.00 µM = 100.00; read-out: huvec.cyto.24hr
Where a name gives a salt, the structure may show the parent alone.
Reported endpoint: viability at 1 µM (%)

>>> value_reported("O=S(=O)(O)Oc1ccc(-c2cccc(Cl)c2)cc1Cl [4-yl PCB 11 sulfate]")
97.8
>>> value_reported("O=S(=O)(O)Oc1cc(Cl)c(-c2cc(Cl)ccc2Cl)cc1Cl [4-yl PCB 52 sulfate]")
93.5
>>> value_reported("Clc1ccc(-c2ccccc2)cc1 [PCB3]")
73.5
>>> value_reported("O=S(=O)(O)Oc1ccc(-c2ccc(Cl)cc2)cc1 [4'-yl PCB 3 sulfate]")
87.4

---

# Test system: iCell endothelial cells (human iPSC-derived ECs)
# Procedure details: High-content imaging cytotoxicity in iCell endothelial cells, 24 h
# Format: cell-based
# Conditions: Homo sapiens, Endothelial cell, iPSC-EC, 24 hr, top concentration 100.00 µM, read-out: endo.mitoint.24hr POD
Counter-ions that a name gives are not always drawn.
Reported endpoint: minimal effective concentration (µM)

>>> value_reported("COc1ccc(-c2ccc(Cl)cc2)cc1")
20.5
>>> value_reported("Clc1cccc(-c2cccc(Cl)c2)c1")
100
>>> value_reported("Oc1cccc(-c2ccc(Cl)cc2)c1")
100
>>> value_reported("COc1ccc(-c2cccc(Cl)c2)cc1Cl")
100
>>> value_reported("Oc1cc(Cl)cc(-c2cccc(Cl)c2)c1")
55
>>> value_reported("O=S(=O)(O)Oc1ccc(-c2cccc(Cl)c2)cc1Cl [4-yl PCB 11 sulfate]")
100
>>> value_reported("Oc1ccc(-c2ccc(Cl)cc2)cc1")
100
>>> value_reported("O=S(=O)(O)Oc1cc(Cl)c(-c2cc(Cl)ccc2Cl)cc1Cl [4-yl PCB 52 sulfate]")
100
>>> value_reported("O=S(=O)(O)Oc1cccc(-c2ccc(Cl)cc2)c1 [3'-yl PCB 3 sulfate]")
100

---

# Test system: iPSC-CMs, iPSC-ECs and HUVECs phenotypes
# Procedure details: ToxPi 2.0 integration of POD values and physicochemical descriptors
# Design: species or system human
# Conditions: ToxPi-scaled (0-1) score; iPSC cardiomyocytes, 90 min
Counter-ions that a name gives are not always drawn.
Measured cm.spacing.cv.90min values are reported for all entries that follow.
Reported endpoint: cm.spacing.cv.90min

>>> value_reported("Clc1ccc(Cl)c(-c2c(Cl)ccc(Cl)c2Cl)c1 [PCB 95, 2,2′,3,5′,6-pentachlorobiphenyl]")
0.2342
>>> value_reported("Clc1cccc(-c2cccc(Cl)c2)c1 [PCB 11, 3,3′-Dichlorobiphenyl]")
0.06972
>>> value_reported("Clc1ccc(-c2ccccc2)cc1 [PCB 3, 4-chlorobiphenyl]")
1
>>> value_reported("Oc1ccc(-c2cccc(Cl)c2)cc1Cl [4-OH-PCB 11]")
0.09289
>>> value_reported("O=S(=O)(O)Oc1cc(-c2ccccc2)ccc1Cl [3-PCB 3 sulfate]")
0
>>> value_reported("Oc1cccc(-c2ccc(Cl)cc2)c1 [3'-OH-PCB 3]")
0.07935

---

Measured minimal effective concentration values are reported for all entries that follow.
# Tested on: iCell endothelial cells (human iPSC-derived ECs)
# Procedure details: Tube formation (tubulogenesis) assay in iCell endothelial cells, 18 h
# Assay type: cell-based
# Conditions: Homo sapiens, Endothelial cell, iPSC-EC tube formation, 18 hr, top concentration 100.00 µM, read-out: endo.tlps.18hr POD
Counter-ions that a name gives are not always drawn.
Reported endpoint: minimal effective concentration (µM)

>>> value_reported("O=S(=O)(O)Oc1cc(Cl)c(-c2cc(Cl)ccc2Cl)cc1Cl [4-yl PCB 52 sulfate]")
5.74
>>> value_reported("Oc1ccc(-c2ccc(Cl)cc2)cc1 [4'-OH PCB3]")
0.19
>>> value_reported("O=S(=O)(O)Oc1cccc(-c2ccc(Cl)cc2)c1 [3'-yl PCB 3 sulfate]")
38.6
>>> value_reported("Clc1cccc(-c2cccc(Cl)c2)c1 [PCB11]")
100
>>> value_reported("O=C1C=CC(=O)C(c2ccc(Cl)cc2)=C1 [4-Cl-BQ, 2-(4-Chlorophenyl)benzo-2,5-quinone]")
1.04
>>> value_reported("Oc1cc(Cl)cc(-c2cccc(Cl)c2)c1 [5-OH PCB 11]")
5.71
>>> value_reported("COc1ccc(-c2ccc(Cl)cc2)cc1 [4'-OMe PCB3]")
12.3
>>> value_reported("Oc1ccc(-c2cccc(Cl)c2)cc1Cl [4-OH PCB11]")
52.5

---

Measured minimal effective concentration values are reported for all entries that follow.
# Tested on: iCell cardiomyocytes (human iPSC-derived cardiomyocytes)
# Procedure details: High-content imaging of cytotoxicity and mitochondrial integrity in iPSC-CMs
# Format: cell-based
# Conditions: Homo sapiens, Cardiomyocyte, 1.5 h, cardiomyocytes (cm), mito, 90 min; read-out: POD cm.mito.90min
Structures can show the parent of a compound that is named as a salt.
Reported endpoint: minimal effective concentration (µM)

>>> value_reported("O=S(=O)(O)Oc1ccc(-c2ccc(Cl)cc2)cc1 [4'-PCB 3 sulfate]")
100
>>> value_reported("O=S(=O)(O)Oc1cccc(-c2ccc(Cl)cc2)c1 [3'-PCB 3 sulfate]")
100
>>> value_reported("Oc1cc(Cl)c(-c2cc(Cl)ccc2Cl)cc1Cl [4-OH-PCB 52]")
8.61
>>> value_reported("COc1ccc(-c2cccc(Cl)c2)cc1Cl [4-OMe-PCB 11, 4-methoxy-3,3′-dichlorobiphenyl]")
29.1
>>> value_reported("O=C1C=CC(=O)C(c2ccc(Cl)cc2)=C1 [4-Cl-BQ, 2-(4-Chlorophenyl)benzo-2,5-quinone]")
38.7
>>> value_reported("Clc1ccc(Cl)c(-c2c(Cl)ccc(Cl)c2Cl)c1 [PCB 95, 2,2′,3,5′,6-pentachlorobiphenyl]")
39.6
>>> value_reported("COc1cc(Cl)c(-c2cc(Cl)ccc2Cl)cc1Cl [4-OMe-PCB 52, 4-methoxy-2,2′,5,5′-tetrachlorobiphenyl]")
18.6
